# target: TLR9 (Mus musculus)
# Construct: from tissue; host or cells: primary splenocytes from C57BL-6/N mouse spleen
# Sequence (Q9EQU3 26-1032): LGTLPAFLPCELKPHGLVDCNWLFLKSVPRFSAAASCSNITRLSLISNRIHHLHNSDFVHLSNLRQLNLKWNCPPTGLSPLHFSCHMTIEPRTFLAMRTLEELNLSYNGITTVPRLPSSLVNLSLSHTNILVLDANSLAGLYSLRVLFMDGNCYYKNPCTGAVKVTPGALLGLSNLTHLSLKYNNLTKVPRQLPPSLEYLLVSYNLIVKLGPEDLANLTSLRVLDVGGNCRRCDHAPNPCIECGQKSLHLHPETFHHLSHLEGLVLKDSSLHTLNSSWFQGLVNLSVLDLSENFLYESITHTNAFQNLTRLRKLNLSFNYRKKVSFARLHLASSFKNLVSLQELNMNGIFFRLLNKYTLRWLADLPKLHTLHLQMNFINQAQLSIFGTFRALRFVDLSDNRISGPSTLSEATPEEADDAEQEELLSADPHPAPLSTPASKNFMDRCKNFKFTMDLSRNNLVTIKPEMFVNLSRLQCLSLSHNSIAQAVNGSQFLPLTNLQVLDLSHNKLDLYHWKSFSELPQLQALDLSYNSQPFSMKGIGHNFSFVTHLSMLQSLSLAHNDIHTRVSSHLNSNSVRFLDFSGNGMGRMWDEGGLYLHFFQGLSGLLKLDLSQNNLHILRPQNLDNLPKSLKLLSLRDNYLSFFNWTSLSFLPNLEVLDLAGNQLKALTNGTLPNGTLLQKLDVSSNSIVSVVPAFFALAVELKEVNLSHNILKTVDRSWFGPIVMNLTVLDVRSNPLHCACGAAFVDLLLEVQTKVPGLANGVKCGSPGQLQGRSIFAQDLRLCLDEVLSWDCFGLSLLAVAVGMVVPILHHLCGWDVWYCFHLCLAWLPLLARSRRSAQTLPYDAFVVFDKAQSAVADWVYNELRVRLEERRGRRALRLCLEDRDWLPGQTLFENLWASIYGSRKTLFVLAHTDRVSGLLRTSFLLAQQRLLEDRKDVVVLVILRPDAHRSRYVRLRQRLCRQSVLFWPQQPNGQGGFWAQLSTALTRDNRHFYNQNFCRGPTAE
# protocol description: Mouse spleenocytes cell assay with CpG stimulation (IL6/TNFa ELISA)
# Assay type: cell-based
# condition parameters: CpG 5 µM, TNF readout; read-out: IC50 TLR9 (TNF readout) mouse spleenocytes (n=2)
endpoint name: IC50 (µM)
Quick note: give the figure in µM, leave out the unit.

Exam item: Report IC50 for CCN(CCO)CCCC(C)Nc1ccnc2cc(Cl)ccc12 (stereo not shown) [HYDROXY-CHLOROQUINE HCQ, hydroxychloroquine] tested on TLR9 (Mus musculus).
Marked response: 11.5

----------
Listed here are molecules together with their documented pIC50.
# target: UniProt Q9NYK1
# Sequence (Q9NYK1 27-1049, species assumed): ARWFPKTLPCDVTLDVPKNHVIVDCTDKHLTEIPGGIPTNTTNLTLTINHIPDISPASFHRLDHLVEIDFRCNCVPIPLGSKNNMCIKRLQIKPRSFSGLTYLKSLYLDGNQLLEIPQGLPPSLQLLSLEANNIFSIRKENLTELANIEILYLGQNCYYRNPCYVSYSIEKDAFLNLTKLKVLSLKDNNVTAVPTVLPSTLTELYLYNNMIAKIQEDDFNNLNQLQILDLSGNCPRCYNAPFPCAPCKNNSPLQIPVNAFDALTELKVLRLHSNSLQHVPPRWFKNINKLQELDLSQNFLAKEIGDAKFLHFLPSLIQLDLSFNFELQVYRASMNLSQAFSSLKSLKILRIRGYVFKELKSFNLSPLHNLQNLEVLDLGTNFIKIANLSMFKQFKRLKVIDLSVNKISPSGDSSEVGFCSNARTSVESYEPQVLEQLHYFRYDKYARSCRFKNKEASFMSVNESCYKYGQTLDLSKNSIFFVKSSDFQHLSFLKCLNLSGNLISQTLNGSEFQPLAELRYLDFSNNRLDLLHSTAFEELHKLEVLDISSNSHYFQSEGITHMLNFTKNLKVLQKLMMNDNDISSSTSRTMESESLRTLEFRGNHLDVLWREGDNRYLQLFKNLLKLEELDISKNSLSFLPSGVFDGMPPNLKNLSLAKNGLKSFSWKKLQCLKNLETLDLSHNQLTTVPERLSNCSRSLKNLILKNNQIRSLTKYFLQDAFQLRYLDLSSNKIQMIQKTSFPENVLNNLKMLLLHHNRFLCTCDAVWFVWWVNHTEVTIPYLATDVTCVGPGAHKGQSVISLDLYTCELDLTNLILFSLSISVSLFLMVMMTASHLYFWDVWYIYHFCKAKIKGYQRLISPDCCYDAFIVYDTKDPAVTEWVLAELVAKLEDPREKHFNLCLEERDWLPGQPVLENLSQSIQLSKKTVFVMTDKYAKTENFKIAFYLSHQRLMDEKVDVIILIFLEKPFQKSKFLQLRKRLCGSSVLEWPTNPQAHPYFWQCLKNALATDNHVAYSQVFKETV
# protocol description: HEK293 TLR7/NFKb reporter cell assay with R848 agonist
# Assay type: cell-based
# Design: expressed in transfected cells; host or cells: HEK293
# condition parameters: Example 4 results table; assay/readout not specified; read-out: Potency
pIC50: −log10 of the molar value.

| smiles input | pIC50 |
| --- | --- |
| Oc1c(CN2CCCC2)cc(Nc2ccnc3cc(Cl)ccc23)cc1CN1CCCC1 | > 6.00 |
| COc1ccc2nc3cc(Cl)ccc3c(Nc3cc(CN4CCCC4)c(O)c(CN4CCCC4)c3)c2n1 | > 6.00 |

// below: pIC50 requested for another molecule
Exam item: What value of pIC50 has been reported for the following molecule? `CCN(CC)Cc1cc(Nc2ccnc3cc(Cl)ccc23)cc(CN(CC)CC)c1O`
Marked response: > 6.00

----------
# target: UniProt P58681
# Sequence (P58681 27-1050): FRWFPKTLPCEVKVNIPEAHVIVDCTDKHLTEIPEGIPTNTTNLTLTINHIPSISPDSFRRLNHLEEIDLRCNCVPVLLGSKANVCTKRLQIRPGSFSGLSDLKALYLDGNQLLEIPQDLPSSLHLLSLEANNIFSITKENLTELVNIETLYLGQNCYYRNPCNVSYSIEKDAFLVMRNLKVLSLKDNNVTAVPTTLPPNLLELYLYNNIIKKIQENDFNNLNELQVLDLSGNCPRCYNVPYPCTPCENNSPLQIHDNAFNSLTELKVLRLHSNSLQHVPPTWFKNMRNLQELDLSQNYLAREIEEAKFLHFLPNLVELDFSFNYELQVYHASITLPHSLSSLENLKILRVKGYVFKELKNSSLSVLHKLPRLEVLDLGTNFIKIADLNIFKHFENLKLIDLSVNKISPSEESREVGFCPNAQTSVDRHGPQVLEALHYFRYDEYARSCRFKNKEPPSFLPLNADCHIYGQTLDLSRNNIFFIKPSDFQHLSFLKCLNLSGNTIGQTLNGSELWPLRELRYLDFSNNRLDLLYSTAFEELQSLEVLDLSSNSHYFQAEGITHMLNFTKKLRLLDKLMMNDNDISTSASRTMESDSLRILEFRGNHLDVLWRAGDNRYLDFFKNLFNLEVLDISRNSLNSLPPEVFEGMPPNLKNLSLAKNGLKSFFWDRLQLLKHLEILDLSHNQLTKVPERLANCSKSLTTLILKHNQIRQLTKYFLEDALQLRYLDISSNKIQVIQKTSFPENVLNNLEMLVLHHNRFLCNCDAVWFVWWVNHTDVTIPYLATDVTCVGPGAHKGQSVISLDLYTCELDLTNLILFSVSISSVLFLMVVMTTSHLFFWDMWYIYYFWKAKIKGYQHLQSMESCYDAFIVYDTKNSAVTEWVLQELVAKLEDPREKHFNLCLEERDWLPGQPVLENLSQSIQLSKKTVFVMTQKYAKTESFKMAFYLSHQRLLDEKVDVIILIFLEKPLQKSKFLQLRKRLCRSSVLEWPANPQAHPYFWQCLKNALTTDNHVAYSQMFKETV
# protocol description: Mouse spleenocytes cell assay with R848 stimulation (IL6/TNFa ELISA)
# condition parameters: R848 1 µM, IL6 readout; read-out: IC50 TLR⅞ (IL6 readout) mouse spleenocytes (n=2)
endpoint name: pIC50
Scale note: pIC50 = -log10(concentration in M).

Exam item: Form: Entry = CCN(CCO)CCCC(C)Nc1ccnc2cc(Cl)ccc12 (stereo not shown) [HYDROXY-CHLOROQUINE HCQ, hydroxychloroquine] | System = UniProt P58681 | pIC50 = ____
Marked response: 4.57
